kon overview
molecular target: T1, human epidermal growth factor receptor antigen (human, UniProt P00533 25-645, limits assumed); experiment: SPR (Biacore T200), 37 C, scFv-Fc, 0 uM MTX
T1 construct: whole entry named; also called EGFR
# unit: M⁻¹ s⁻¹ | format: bare number

{"binder": "P05_A11 scFv-Fc fusion (scFv, V domains shown, Tested as scFv-Fc fusion) VH: QVQLVESGGGLVQAGGSLRLSCAASRRSSRSWAMHWVRQAPGKGLEWVAVISYDGRLKYYADSVKGRFTISRDNAEYLVYLQMNSLRAEDTAVYYCAASDDADIFDDYSYGAMDYWGQGTLVTVSS VL: QSVLTQPPSASGTPGQRVTISCSGSSSNIGRNYVYWYQQLPGTAPKLLIYMTSQRPSGVPDRFSGSKSGTSASLAISGLRSEDEADYYCASWDDNLRAWVFGTGTKLTVL", "kon / M⁻¹ s⁻¹": 120000}
{"binder": "P14_E03 scFv-Fc fusion (scFv, V domains shown, Tested as scFv-Fc fusion) VH: QVQLVESGGGLVQAGGSLRLSCAASRRSSRSWAMHWVRQAPGKGLEWVAVISYDGRLKYYADSVKGRFTISRDNAEYLVYLQMNSLRAEDTAVYYCAAAPRVDWSDVSSGIDYWGQGTLVTVSS VL: QSVLTQPPSASGTPGQRVTISCSGSISNIGTNNVYWYQQLPGTAPKLLIYRNNQRPSGVPDRFSGSKSGTSASLAISGLRSEDEADYYCSAWDDSLSGVVFGTGTKLTVL", "kon / M⁻¹ s⁻¹": 110000}
{"binder": "P07_H08 scFv-Fc fusion (scFv, V domains shown, Tested as scFv-Fc fusion) VH: QVQLVESGGGLVQAGGSLRLSCAASRRSSRSWAMHWVRQAPGKGLEWVAVISYDGRLKYYADSVKGRFTISRDNAEYLVYLQMNSLRAEDTAVYYCAAGFDWGWDSSDIYSAMDYWGQGTLVTVSS VL: DIQMTQSPSSLSASVGDRVTITCRASQNIGRYLHWYQQKPGKAPKLLIYSASNLQSGVPSRFSGSGSGTDFTLTISSLQPEDFATYYCQQSYSSPFTFGQGTKVEIK", "kon / M⁻¹ s⁻¹": 330000}
{"binder": "P01_B06 scFv-Fc fusion (scFv, V domains shown, Tested as scFv-Fc fusion) VH: QVQLVESGGGLVQAGGSLRLSCAASRRSSRSWAMHWVRQAPGKGLEWVAVISYDGRLKYYADSVKGRFTISRDNAEYLVYLQMNSLRAEDTAVYYCAADTSMFASYDPMDVWGQGTLVTVSS VL: QSVLTQPPSASGTPGQRVTISCSGSSSNIGRNYVNWYQQLPGTAPKLLIYRDDHRPSGVPDRFSGSKSGTSASLAISGLRSEDEADYYCASWDDTLSGWVFGTGTKLTVL", "kon / M⁻¹ s⁻¹": 100000}

Now for the binder whose kon we want.
Query P01_F02 scFv-Fc fusion (scFv, V domains shown, Tested as scFv-Fc fusion) VH: QVQLVESGGGLVQAGGSLRLSCAASRRSSRSWAMHWVRQAPGKGLEWVAVISYDGRLKYYADSVKGRFTISRDNAEYLVYLQMNSLRAEDTAVYYCAADVESALAYGEPYHHMDVWGQGTLVTVSS VL: QSVLTQPPSASGTPGQRVTISCSGSSSNIGRNYVYWYQQLPGTAPKLLIYRTSQRPSGVPDRFSGSKSGTSASLAISGLRSEDEADYYCATWDDSLSGWVFGTGTKLTVL yields kon of 61000
